target: equine FcRn (large alpha subunit p51) in complex with equine beta-2-microglobulin (equine) (UniProt F6XZ61); assay: SPR (Biacore), pH 6
Measure name: Kd
Note to self: number, then unit, no commentary.

equine IgG7 M428Q mutant (antibody, part only; not given: variable domains, not shown: another chain or arm of the molecule) constant: ASTTAPKVFPLASHSAATSGSTVALGCLVSSYFPEPVTVSWNSGALTSGVHTFPSVLQSSGLYSLSSMVTVPASSLKSQTYICNVAHPASSTKVDKKIVIKECGGCPTCPECLSVGPSVFIFPPKPKDVLMISRTPTVTCVVVDVGHDFPDVQFNWYVDGVETHTATTEPKQEQNNSTYRVVSILAIQHKDWLSGKEFKCKVNNQALPAPVQKTISKPTGQPREPQVYVLAPHRDELSKNKVSVTCLVKDFYPTDIDIEWKSNGQPEPETKYSTTPAQLDSDGSYFLYSKLTVETNRWQQGTTFTCAVQHEALHNHYTEKSVSKSPGK = 20 nM

Which Kd value belongs to equine IgG7 T286C mutant (antibody, part only; not given: variable domains, not shown: another chain or arm of the molecule) constant: ASTTAPKVFPLASHSAATSGSTVALGCLVSSYFPEPVTVSWNSGALTSGVHTFPSVLQSSGLYSLSSMVTVPASSLKSQTYICNVAHPASSTKVDKKIVIKECGGCPTCPECLSVGPSVFIFPPKPKDVLMISRTPTVTCVVVDVGHDFPDVQFNWYVDGVETHCATTEPKQEQNNSTYRVVSILAIQHKDWLSGKEFKCKVNNQALPAPVQKTISKPTGQPREPQVYVLAPHRDELSKNKVSVTCLVKDFYPTDIDIEWKSNGQPEPETKYSTTPAQLDSDGSYFLYSKLTVETNRWQQGTTFTCAVMHEALHNHYTEKSVSKSPGK ? 84.4 nM
